Data provenance is the supplement of paper PMC11451515.

- Tested on: P12-Ichikawa
- Assay info: AUC of viability dose-response curve (% viability x log10 dose units); higher = less sensitive
- Conditions: HPLM + 10% dialyzed FBS; 48 h
Measured property: AUC of viability dose-response curve
When you answer, write just the number.

1. NC(CO)C(=O)NNCc1ccc(O)c(O)c1O (stereo not drawn) | 450
2. CCCCC[C@H](O)/C=C/[C@H]1[C@H](O)CC(=O)[C@@H]1CCCCCCC(=O)O | 464
3. CC(C)(O)C(=O)Nc1ccc([N+](=O)[O-])c(C(F)(F)F)c1 | 404
4. CN(C)[C@@H](CCOc1cccc2ccccc12)c1ccccc1 | 455
5. COc1c(O)cc2c(c1O)[C@@H]1O[C@H](CO)[C@@H](O)[C@H](O)[C@H]1OC2=O | 432
6. CC(C)(Sc1ccc(CCN(CCCCC2CCCCC2)C(=O)NC2CCCCC2)cc1)C(=O)O | 460
7. COC(=O)C/1=C(C)/N/C(=C(\C1C2=CC(=CC=C2)[N+]([O-])=O)C(=O)OCCCN3CCC(CC3)(C4=CC=CC=C4)C5=CC=CC=C5)C (stereo not drawn) | 453
8. C1CN\2C[C@@H](\N=C2S1)C3=CC=CC=C3 | 467

// field: AUC of viability dose-response curve; key: CCOC(=O)O[C@]1(C(=O)OCCl)CC[C@H]2[C@@H]3CCC4=CC(=O)C=C[C@]4(C)[C@H]3[C@@H](O)C[C@@]21C ; value = 467

// field: AUC of viability dose-response curve; key: NC[C@H]1O[C@H](O[C@H]2[C@H](O)[C@@H](O[C@H]3O[C@H](CO)[C@@H](O)[C@H](N)[C@H]3O)[C@H](N)C[C@@H]2N)[C@H](N)C[C@@H]1O ; value = 459

// field: AUC of viability dose-response curve; key: O[C@@H]1[C@@H](O)[C@H](O[C@@H]([C@H]1O)C(O)=O)OC2=C(O)C(=C3C(=O)\C=C(/OC3=C2)C4=CC=CC=C4)O ; value = 447

// field: AUC of viability dose-response curve; key: C[N]1C=C(C=N1)C2=CC=C3N=CC\4=C(N(C(=O)\C=C4)C5=CC6=C(CCN6C(=O)C=C)C=C5)C3=C2 ; value = 404

// field: AUC of viability dose-response curve; key: Cc1nc(N)ncc1-c1nc(N2CCOCC2)c2sc(C(C)(C)O)cc2n1 ; value = 213
